Experiment: Aqueous solubility of compound at pH 6.5 by shake-flask method
Assay type: physicochemical
Settings: aqueous medium

{"COMPOUND": "COc1cc(-c2nc3ccccc3s2)cc(Br)c1OCC(=O)O", "PREFIX_OPERATOR": "=", "solubility thermodynamic / µg/mL": 6}
{"COMPOUND": "COCCOc1ccc2nc(-c3cn(-c4ccc(O)cc4)nn3)ccc2c1", "PREFIX_OPERATOR": "=", "solubility thermodynamic / µg/mL": 3.6}
{"COMPOUND": "Oc1ccc(-n2cc(-c3ccc4cc(OCCOCCN5CCOCC5)ccc4n3)nn2)cc1", "PREFIX_OPERATOR": "=", "solubility thermodynamic / µg/mL": 48.5}
{"COMPOUND": "Oc1cc2c(cc1C(c1ccc(C(F)(F)F)cc1)N1CCOCC1)OCO2 (configuration not stated)", "PREFIX_OPERATOR": "=", "solubility thermodynamic / µg/mL": 27.6}
{"COMPOUND": "COc1ccc(C(=O)O)cc1NC(=S)NC(=O)c1cc2ccccc2o1", "PREFIX_OPERATOR": "<", "solubility thermodynamic / µg/mL": 5}
{"COMPOUND": "O=C(O)c1cccc(NC(=S)NC(=O)c2ccc(-c3ccccc3)cc2)c1", "PREFIX_OPERATOR": "<", "solubility thermodynamic / µg/mL": 1}
{"COMPOUND": "Cc1ccc2oc(=O)n(Cc3cccc(O)c3)c2c1", "PREFIX_OPERATOR": "=", "solubility thermodynamic / µg/mL": 21.9}
